These measurements were taken from paper PMC11249646.

Reported Efficacy (%) values for the following molecules.
Target Under Test: CIB1 and αIIb interaction (CIB1-GST : F-αIIb peptide) (Homo sapiens)
Construct: made in house; host or cells: BL-21 plus RIL cells (E. coli)
Sequence (Q99828 1-191): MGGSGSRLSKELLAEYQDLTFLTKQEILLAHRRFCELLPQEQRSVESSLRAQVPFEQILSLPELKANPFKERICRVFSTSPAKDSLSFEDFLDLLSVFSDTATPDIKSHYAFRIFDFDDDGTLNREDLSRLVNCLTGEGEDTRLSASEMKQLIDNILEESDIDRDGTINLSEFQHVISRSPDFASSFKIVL
Assay Text: FP assay, 1536-well qHTS format (primary and confirmatory screen)
Assay type: binding
Condition Info: qHTS FP screen hits, Table S2; negative = inhibition
Report as a plain number; the unit % is understood.

Example cases with answers are listed next.
[[record]]
molecule = "N#Cc1ccc(NS(=O)(=O)c2ccc(NC(=O)Cc3ccc(Cl)c(Cl)c3)cc2)cc1.O=C(O)C(F)(F)F"
measurement_kind = "Efficacy (%)"
meas_value = -18

[[record]]
molecule = "COc1ccc2[nH]c([S+]([O-])Cc3ncc(C)c(OC)c3C)nc2n1 (stereo not shown)"
measurement_kind = "Efficacy (%)"
meas_value = -34

[[record]]
molecule = "CCCCCCCCOc1ccccc1C(=O)Nc1ccc(C(=O)OCC[N+](C)(CC)CC)cc1.[Br-]"
measurement_kind = "Efficacy (%)"
meas_value = -39

[[record]]
molecule = "CCOC(=O)CC(SP(=S)(OC)OC)C(=O)OCC (stereo not shown)"
measurement_kind = "Efficacy (%)"
meas_value = -52

[[record]]
molecule = "O=C(O)C(F)(F)F.O=C1Nc2ccccc2/C1=N/NC(=S)Nc1ccc(O)cc1"
measurement_kind = "Efficacy (%)"
meas_value = -42


Entry COc1ccccc1C(=O)c1no[n+]([O-])c1C(=O)c1ccccc1OC.O=C(O)C(F)(F)F : reported Efficacy (%) = ?
-37

Consider next the molecule O=c1[nH]c(=O)c2nc3ccccc3nc2[nH]1 in the same way.
-54

How about COP(=S)(OC)SCN1C(=O)c2ccccc2C1=O ?
-50

Param item: C=CCNc1oc(-c2cccc3ccccc23)nc1C#N.O=C(O)C(F)(F)F
-38

# iterate: Cc1ccc(S(=O)(=O)Nc2cnccc2C(=O)Nc2nc(-c3ccc4c(c3)CCCC4)cs2)cc1.O=C(O)C(F)(F)F
-37
